Tested on: Psdm. aerug. Walter
procedureSummary: MIC, liquid medium test tube series dilution test
Format: cell-based, Pseudomonas aerug.
assayContext: 24 hours, 37°C
Form field: MIC (one value per entry).
Give just the number in units/ml; leave the unit off.

# return recorded MIC for entry CCN(C(=O)N[C@@H](C(=O)N[C@@H]1C(=O)N2[C@@H]1SC(C)(C)[C@@H]2C(=O)O)c1ccccc1)C(=O)c1ccccc1Cl
100

---

Each entry below carries its reported MIC.
System: Proteus vulg. 1017
procedureSummary: MIC, liquid medium test tube series dilution test
Assay type: cell-based, Proteus vulgaris
assayContext: Proteus vulg. 1017, 24 hours, 37°C

The cases that follow already have their MIC on record.
{"columns": ["compound", "system", "MIC"],
 "data": [
  ["COC(=O)N(C)C(=O)N[C@H](C(=O)N[C@@H]1C(=O)N2[C@@H]1SC(C)(C)[C@@H]2C(=O)O)c1c(Cl)cccc1Cl [Example 8]", "Proteus vulg. 1017", "> 500 units/ml"],
  ["C=CCOC(=O)N(C)C(=O)N[C@@H](C(=O)N[C@@H]1C(=O)N2[C@@H]1SC(C)(C)[C@@H]2C(=O)O)c1ccccc1 [Example 30]", "Proteus vulg. 1017", "100-500 units/ml"],
  ["CC(C)C(=O)N(C)C(=O)N[C@@H](C(=O)N[C@@H]1C(=O)N2[C@@H]1SC(C)(C)[C@@H]2C(=O)O)c1ccccc1 [Example 116]", "Proteus vulg. 1017", "4-20 units/ml"],
  ["CN(C(=O)N[C@@H](C(=O)N[C@@H]1C(=O)N2[C@@H]1SC(C)(C)[C@@H]2C(=O)O)c1ccccc1)C(=O)c1ccc(Cl)cc1 [Example 112]", "Proteus vulg. 1017", "0.8-4 units/ml"]
]}

Could you now look at the following compound, please?
State its MIC: CN(C(=O)N[C@@H](C(=O)N[C@@H]1C(=O)N2[C@@H]1SC(C)(C)[C@@H]2C(=O)O)c1ccccc1)C(=O)c1ccccc1Cl [Example 107]
0.8-4 units/ml
